# Tested on: SARS-CoV-2
# protocol.description: microbe, parasite or virus in culture
# Assay type: cell-based
# condition.description: Severe acute respiratory syndrome coronavirus 2; Huh-7 cells, MOI 0.2, 10-point two-fold dilution dose response in triplicate
pEC50: −log10 of the molar value.
Overview of recorded pEC50 for various molecules
readout.label: pEC50

> print(dat)
                                   molecule  test.target  measured.value
1      Cc1cc(OCCN2CCOCC2)nn1-c1ccc2ccccc2c1   SARS-CoV-2            6.65
2  Cc1cnc(Nc2ccc(OCCN3CCCC3)cc2)nc1Nc1cccc(S(=O)(=O)NC(C)(C)C)c1   SARS-CoV-2            7.60
3  CCc1nc(C(N)=O)c(Nc2ccc(N3CCC(N4CCN(C)CC4)CC3)c(OC)c2)nc1NC1CCOCC1   SARS-CoV-2            6.68
4  C=C1[C@H](CO)[C@@H](O)C[C@@H]1n1cnc2c(=O)[nH]c(N)nc21   SARS-CoV-2            6.70
5  O=C(NC1CCN(CCCCC2(C(=O)NCC(F)(F)F)c3ccccc3-c3ccccc32)CC1)c1ccccc1-c1ccc(C(F)(F)F)cc1 [Lomitapide]   SARS-CoV-2            5.80
6  O=C(Nc1ccc([N+](=O)[O-])cc1Cl)c1cc(Cl)ccc1O [Niclosamide]   SARS-CoV-2            6.85
7                  Nc1nc2nc[nH]c2c(=S)[nH]1   SARS-CoV-2            6.63
8  CCN(CC)CCNC(=O)c1cc(Cl)c(N)cc1OC [Metoclopramide]   SARS-CoV-2            6.33

// data source = patent US20240016901A1
